Test: Tmax in healthy human at 200 mg, po administered with high fat meal
Type: ADME, organism-based
Details: in vivo
property: Tmax (min)
Provide only the numeric value, understood in min.

Task item: Answer with the recorded Tmax of COc1cnc(OC)c2c1c(C(=O)C(=O)N1CCN(C(=O)c3ccccc3)CC1)cn2COP(=O)(O)O.NCCCC[C@H](N)C(=O)O only.
Reply: 30

---

System: Canis familiaris
Test: Cmax in beagle dog assessed as BMS-488043 level at 6.6 mg/kg, po
Format: ADME, organism-based, Canis lupus familiaris
Set-up: dose 6.6 mg/kg, route oral
Conditions: in vivo
property: Cmax (µM)
Provide only the numeric value, understood in µM.

Task item: Answer with the recorded Cmax of COc1cnc(OC)c2c1c(C(=O)C(=O)N1CCN(C(=O)c3ccccc3)CC1)cn2COP(=O)(O)O.NCCCC[C@H](N)C(=O)O only.
Reply: 14
